assay_system: Type-1 angiotensin II receptor B (Rattus norvegicus)
measurement_notes: In vivo pressor response to Ang II (AT1) receptor in pithed rats at an oral dose of 10 mg/kg
Type: functional, organism-based
Set-up: dose 10 mg/kg
// values below are reported Kb

| molecule_smiles | Kb [mg/kg] |
| --- | --- |
| CCCCCC[C@H](C(=O)N1C[C@@H](Oc2ccc(CCP(=O)(O)O)cc2)C[C@H]1C(=O)O)n1cnc(NC(=O)c2ccccc2S(=O)(=O)O)c1 | 8.3 |
| CCCCCC[C@H](C(=O)N1C[C@@H](Oc2ccc(CC(=O)O)cc2)C[C@H]1C(=O)O)n1cnc(NC(=O)c2ccccc2S(=O)(=O)O)c1 | 2.8 |
| CCCCCC[C@H](C(=O)N1C[C@@H](Oc2ccc(C(C)(C)C(=O)O)cc2)C[C@H]1C(=O)O)n1cnc(NC(=O)c2ccccc2S(=O)(=O)O)c1 | 6.5 |
| CCCCCC[C@H](C(=O)N1C[C@@H](Oc2ccc(CP(=O)(O)O)cc2)C[C@H]1C(=O)O)n1cnc(NC(=O)c2ccccc2S(=O)(=O)O)c1 | 1.8 |
| CCCCCC[C@H](C(=O)N1C[C@@H](Oc2cccc(CC(=O)O)c2)C[C@H]1C(=O)O)n1cnc(NC(=O)c2ccccc2S(=O)(=O)O)c1 | 10.6 |

* * *

assay_system: Type-1 angiotensin II receptor (Oryctolagus cuniculus) (UniProt P34976)
measurement_notes: In vitro antagonistic activity against Ang II (AT1) receptor was determined in rabbit aorta
Assay type: functional, tissue-based
Threshold 1 nM. Kb below it: YES. Kb at it or above: NO.

| compound | group_label |
| --- | --- |
| CCCCCCC(C(=O)O)n1cnc(NC(=O)c2cccc(O)c2C(=O)O)c1 (stereo not given) | NO |
| CCCCCC[C@@H](C(=O)N1CCC[C@H]1C(=O)O)n1cnc(NC(=O)c2ccccc2S(=O)(=O)O)c1 | NO |
| CCCCCC[C@H](C(=O)N1C[C@@H](Oc2ccc(CC3N=NN=N3)cc2)C[C@H]1C(=O)O)n1cnc(NC(=O)c2ccccc2S(=O)(=O)O)c1 | YES |
| CCCCCC[C@H](C(=O)N1C[C@@H](Oc2ccc(C(C)(C)C(=O)O)cc2)C[C@H]1C(=O)O)n1cnc(NC(=O)c2ccccc2S(=O)(=O)O)c1 | YES |
| CCCCCC[C@H](C(=O)N1C[C@@H](Oc2ccccc2)C[C@H]1C(=O)O)n1cnc(NC(=O)c2ccccc2S(=O)(=O)O)c1 | YES |
| CCCCC(C(=O)O)n1cnc(C(=O)Nc2ccccc2)c1 (stereo not given) | NO |
| CCCCCC[C@H](C(=O)N1C[C@@H](Oc2ccc(CCP(=O)(O)O)cc2)C[C@H]1C(=O)O)n1cnc(NC(=O)c2ccccc2S(=O)(=O)O)c1 | YES |
| CCCCCC[C@H](C(=O)N1C[C@@H](Oc2ccccc2CC(=O)O)C[C@H]1C(=O)O)n1cnc(NC(=O)c2ccccc2S(=O)(=O)O)c1 | NO |
| CCCCCC[C@H](C(=O)N1C[C@@H](Oc2ccc(F)cc2)C[C@H]1C(=O)O)n1cnc(NC(=O)c2ccccc2S(=O)(=O)O)c1 | NO |
| CCCCCC[C@H](C(=O)N1C[C@@H](Oc2cccc3ccccc23)C[C@H]1C(=O)O)n1cnc(NC(=O)c2ccccc2S(=O)(=O)O)c1 | NO |
| CCCCCC[C@H](C(=O)N1C[C@@H](Oc2ccc3occc3c2)C[C@H]1C(=O)O)n1cnc(NC(=O)c2ccccc2S(=O)(=O)O)c1 | YES |
| CCCCCCC(C(=O)O)n1cnc(NC(=O)c2ccccc2)c1 (stereo not given) | NO |
| CCCCCC[C@@H](C(=O)N1C[C@@H](Oc2ccccc2)C[C@H]1C(=O)O)n1cnc(NC(=O)c2ccccc2S(=O)(=O)O)c1 | NO |
| CCCCCCC(C(=O)O)n1cnc(NC(=O)c2ccccc2-c2nn[nH]n2)c1 (stereo not given) | NO |
| CCCCCC[C@H](C(=O)N1C[C@@H](Oc2ccc(C)cc2)C[C@H]1C(=O)O)n1cnc(NC(=O)c2ccccc2S(=O)(=O)O)c1 | NO |

* * *

// values below are reported Kb
assay_system: Type-1 angiotensin II receptor (Oryctolagus cuniculus) (UniProt P34976)
measurement_notes: In vitro antagonistic activity against Ang II (AT1) receptor was determined in rabbit aorta
Type: functional, tissue-based
measurement_label: Kb (nM)

| compound | readout_value |
| --- | --- |
| CCCCCC[C@H](C(=O)N1C[C@@H](Oc2ccc3sccc3c2)C[C@H]1C(=O)O)n1cnc(NC(=O)c2ccccc2S(=O)(=O)O)c1 | 3.6 |
| CCCCCC[C@H](C(=O)N1C[C@@H](Oc2ccc3ccccc3c2)C[C@H]1C(=O)O)n1cnc(NC(=O)c2ccccc2S(=O)(=O)O)c1 | 4.1 |
| CCCCCCC(C(=O)O)n1cnc(NC(=O)c2ccccc2S(=O)(=O)O)c1 (centres undefined) | 81.7 |
| CCCCCC[C@H](C(=O)N1C[C@@H](Oc2ccc(C(C)(C)C)cc2)C[C@H]1C(=O)O)n1cnc(NC(=O)c2ccccc2S(=O)(=O)O)c1 | 126 |

* * *

assay_system: UniProtKB P34976
Sequence (whole entry): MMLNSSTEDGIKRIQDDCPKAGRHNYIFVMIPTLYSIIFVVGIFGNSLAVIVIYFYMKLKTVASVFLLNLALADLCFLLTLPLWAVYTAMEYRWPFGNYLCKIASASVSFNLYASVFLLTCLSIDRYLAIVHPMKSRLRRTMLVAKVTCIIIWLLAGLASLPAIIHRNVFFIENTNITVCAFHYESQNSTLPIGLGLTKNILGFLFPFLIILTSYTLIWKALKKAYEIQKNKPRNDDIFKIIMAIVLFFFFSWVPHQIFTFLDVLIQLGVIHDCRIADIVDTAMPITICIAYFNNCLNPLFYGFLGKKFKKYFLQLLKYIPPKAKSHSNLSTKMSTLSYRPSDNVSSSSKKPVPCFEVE
measurement_notes: In vitro antagonistic activity against Ang II (AT1) receptor was determined in rabbit aorta
Format: functional, tissue-based
Threshold 30 nM. Kb below it: Criterion met. Kb at it or above: Criterion not met.

| compound | group_label |
| --- | --- |
| CCCCCC[C@H](C(=O)N1CCC[C@H]1C(=O)O)n1cnc(NC(=O)c2ccccc2S(=O)(=O)O)c1 | Criterion not met |
| CCCCCCC(C(=O)O)n1cnc(NC(=O)c2ccccc2C(=O)O)c1 (centres undefined) | Criterion not met |
| CCCCCC[C@H](C(=O)N1C[C@@H](Oc2ccc3c(c2)OCO3)C[C@H]1C(=O)O)n1cnc(NC(=O)c2ccccc2S(=O)(=O)O)c1 | Criterion met |
| CCCCCC[C@H](C(=O)N1C[C@@H](Oc2cccc3cnccc23)C[C@H]1C(=O)O)n1cnc(NC(=O)c2ccccc2S(=O)(=O)O)c1 | Criterion met |
| CCCCCC[C@H](C(=O)N1C[C@@H](Oc2ccccc2OC)C[C@H]1C(=O)O)n1cnc(NC(=O)c2ccccc2S(=O)(=O)O)c1 | Criterion not met |
| CCCCCC[C@H](C(=O)N1C[C@@H](Oc2ccc(C(F)(F)F)cc2)C[C@H]1C(=O)O)n1cnc(NC(=O)c2ccccc2S(=O)(=O)O)c1 | Criterion not met |
| CCCCCC[C@H](C(=O)N1C[C@@H](Oc2ccc(CCC(=O)O)cc2)C[C@H]1C(=O)O)n1cnc(NC(=O)c2ccccc2S(=O)(=O)O)c1 | Criterion met |
| CCCCCC[C@H](C(=O)N1C[C@@H](Oc2cccnc2)C[C@H]1C(=O)O)n1cnc(NC(=O)c2ccccc2S(=O)(=O)O)c1 | Criterion not met |
| CCCCCC[C@H](C(=O)N1C[C@@H](Oc2cccc(OC)c2)C[C@H]1C(=O)O)n1cnc(NC(=O)c2ccccc2S(=O)(=O)O)c1 | Criterion met |
| CCCCCC[C@H](C(=O)N1C[C@@H](Oc2ccc(C(=O)O)cc2)C[C@H]1C(=O)O)n1cnc(NC(=O)c2ccccc2S(=O)(=O)O)c1 | Criterion met |
| CCCCCC[C@H](C(=O)N1C[C@@H](Oc2ccc(C(C)C)cc2)C[C@H]1C(=O)O)n1cnc(NC(=O)c2ccccc2S(=O)(=O)O)c1 | Criterion met |
| CCCCCC[C@H](C(=O)N1C[C@@H](Oc2ccc(OC)c(OC)c2)C[C@H]1C(=O)O)n1cnc(NC(=O)c2ccccc2S(=O)(=O)O)c1 | Criterion met |
| CCCCCC[C@H](C(=O)N1C[C@@H](Oc2ccno2)C[C@H]1C(=O)O)n1cnc(NC(=O)c2ccccc2S(=O)(=O)O)c1 | Criterion not met |
| CCCCCC[C@H](C(=O)N1C[C@@H](Oc2cccc(CC(=O)O)c2)C[C@H]1C(=O)O)n1cnc(NC(=O)c2ccccc2S(=O)(=O)O)c1 | Criterion met |

* * *

assay_system: Type-1 angiotensin II receptor (Oryctolagus cuniculus) (UniProt P34976)
Sequence (whole entry): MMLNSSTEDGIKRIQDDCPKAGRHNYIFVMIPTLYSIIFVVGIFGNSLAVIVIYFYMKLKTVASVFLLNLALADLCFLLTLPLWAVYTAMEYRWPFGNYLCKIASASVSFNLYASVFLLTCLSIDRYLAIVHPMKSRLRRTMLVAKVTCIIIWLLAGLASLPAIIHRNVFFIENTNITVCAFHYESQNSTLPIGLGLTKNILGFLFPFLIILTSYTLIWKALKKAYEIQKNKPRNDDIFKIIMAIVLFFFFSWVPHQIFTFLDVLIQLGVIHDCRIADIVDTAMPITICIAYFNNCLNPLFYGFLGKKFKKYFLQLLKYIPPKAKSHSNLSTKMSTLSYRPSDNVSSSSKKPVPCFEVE
measurement_notes: In vitro antagonistic activity against Ang II (AT1) receptor was determined in rabbit aorta
Assay type: functional, tissue-based

| molecule_smiles | assay_system | Kb (nM) |
| --- | --- | --- |
| CCCCCC[C@H](C(=O)N1C[C@@H](Oc2ccc(CP(=O)(O)O)cc2)C[C@H]1C(=O)O)n1cnc(NC(=O)c2ccccc2S(=O)(=O)O)c1 | Type-1 angiotensin II receptor (Oryctolagus cuniculus) (UniProt P34976) | 0.9 |
| CCCCCC[C@H](C(=O)N1C[C@@H](O)C[C@H]1C(=O)O)n1cnc(NC(=O)c2ccccc2S(=O)(=O)O)c1 | Type-1 angiotensin II receptor (Oryctolagus cuniculus) (UniProt P34976) | 25.8 |
| CCCCCC[C@H](C(=O)N1C[C@@H](Oc2ccc(-c3ccccc3)cc2)C[C@H]1C(=O)O)n1cnc(NC(=O)c2ccccc2S(=O)(=O)O)c1 | Type-1 angiotensin II receptor (Oryctolagus cuniculus) (UniProt P34976) | 10 |
| CCCCCC[C@H](C(=O)N1C[C@@H](Oc2ccc(OC(C)(C)C)cc2)C[C@H]1C(=O)O)n1cnc(NC(=O)c2ccccc2S(=O)(=O)O)c1 | Type-1 angiotensin II receptor (Oryctolagus cuniculus) (UniProt P34976) | 5.2 |
| CCCCCC[C@H](C(=O)N1C[C@@H](Oc2ccc(OC(C)C)cc2)C[C@H]1C(=O)O)n1cnc(NC(=O)c2ccccc2S(=O)(=O)O)c1 | Type-1 angiotensin II receptor (Oryctolagus cuniculus) (UniProt P34976) | 4.1 |
| CCCCCC[C@H](C(=O)N1C[C@@H](Oc2ccc(OC)cc2)C[C@H]1C(=O)O)n1cnc(NC(=O)c2ccccc2S(=O)(=O)O)c1 | Type-1 angiotensin II receptor (Oryctolagus cuniculus) (UniProt P34976) | 0.44 |
| CCCCCC[C@H](C(=O)N1C[C@@H](Oc2ccc(CC(=O)O)cc2)C[C@H]1C(=O)O)n1cnc(NC(=O)c2ccccc2S(=O)(=O)O)c1 | Type-1 angiotensin II receptor (Oryctolagus cuniculus) (UniProt P34976) | 0.27 |

Sourced from ChEMBL document CHEMBL1127307
